Where do these numbers come from? They come from patent US5955493A.

Measured Max. % mice showing motor effect by item
# System: Mice
# experiment_notes: Rotarod test (motor effects)
# Format: in vivo
# test_context: i.c.v., rotarod 8 revolutions per min; *P ≤ 0.05 as compared with control
endpoint: Max. % mice showing motor effect (%)

[[record]]
compound = "C=CC[S+]1CC[C@]23CCCC[C@H]2[C@H]1Cc1ccc(O)cc13 (some centres unmarked)"
display_unit = "%"
recorded_value = 20

[[record]]
compound = "CN1CC[C@@]23CCCC[C@@H]2[C@@H]1Cc1ccc(O)cc13 [dextrorphan, reference compound]"
display_unit = "%"
recorded_value = 60

[[record]]
compound = "C[S+]1CC[C@]23CCCC[C@H]2[C@H]1Cc1ccc(O)cc13 (relative stereo)"
display_unit = "%"
recorded_value = 60

[[record]]
compound = "CC(C)=CC[S+]1CC[C@]23CCCC[C@H]2[C@H]1Cc1ccc(O)cc13 (relative stereo)"
display_unit = "%"
recorded_value = 0

[[record]]
compound = "Oc1ccc2c(c1)[C@@]13CCCC[C@H]1[C@@H](C2)[S+](CCc1ccccc1)CC3 (relative stereo)"
display_unit = "%"
recorded_value = 20

